Values compiled from patent US20060229433A1.

Tested on: HIV-1 NL 4-3
assay: HIV-1 infection of C8166 cells (syncytia formation, p24 ELISA) with HIV-1 NL 4-3
Assay type: cell-based
Parameters: key: ++, +, (+), (+)− and − represent decreasing numbers of syncitia formed; ++, +, (+), (+)− and − represent decreasing numbers of syncitia formed; ++, +, (+), (+)− and − represent decreasing numbers of syncitia formed; ++, +, (+), (+)− and − represent decreasing numbers of syncitia formed; ++, +, (+), (+)− and − represent decreasing numbers of syncitia formed
condition summary: 5 μM; Day 7; C8166 cells
Square brackets hold non-standard residues; d marks the D form. Peptide text beside a SMILES is read from it. Ava = NCCCCC(=O)O
endpoint: syncitia formed, Day 7

Solved cases (4 shown):
| molecule | syncitia formed, Day 7 |
| --- | --- |
| N=C(N)NCCC[C@H](NC(=O)CNC(=O)[C@@H]1CCCN1C(=O)CN)C(=O)O [GPGR, reference compound] (H-GPGR-OH; N-terminus and C-terminus assumed) | (+) |
| C[C@H](NC(=O)[C@H](CCCNC(=N)N)NC(=O)CNC(=O)[C@@H]1CCCN1C(=O)CN)C(=O)NCCCCC(=O)O [GPGRA valeric acid, GPGRA-NHCH2CH2CH2CH2COOH] (H-GPGRA[Ava]-OH; N-terminus assumed) | − |
| NCC(=O)N1CCC[C@H]1C(=O)NCC(=O)O [GPG, reference compound] (H-Gly-Pro-Gly-OH) | − |
| N=C(N)NCCC[C@H](NC(=O)CNC(=O)[C@@H]1CCCN1C(=O)CN)C(=O)NCCCCC(=O)O [GPGR valeric acid, GPGR-NHCH2CH2CH2CH2COOH] (H-GPGR[Ava]-OH; N-terminus assumed) | − |

Now examine the next entry.
Bench note: what syncitia formed, Day 7 did NCC(=O)N1CCC[C@H]1C(=O)NCC(=O)NCCCCC(=O)O [GPG valeric acid, GPG-NHCH2CH2CH2CH2COOH] (H-GPG[Ava]-OH; N-terminus assumed) show?
−
